Cited source: the kinase profiling compilation of Christmann-Franck et al. (2016)

molecular target: UniProt Q9Y5S2; assay: radiometric filter-binding kinase assay, Kinase HotSpot; settings: compound 0.5 µM; ATP 10 µM
Sequence (Q9Y5S2 whole entry, looked up): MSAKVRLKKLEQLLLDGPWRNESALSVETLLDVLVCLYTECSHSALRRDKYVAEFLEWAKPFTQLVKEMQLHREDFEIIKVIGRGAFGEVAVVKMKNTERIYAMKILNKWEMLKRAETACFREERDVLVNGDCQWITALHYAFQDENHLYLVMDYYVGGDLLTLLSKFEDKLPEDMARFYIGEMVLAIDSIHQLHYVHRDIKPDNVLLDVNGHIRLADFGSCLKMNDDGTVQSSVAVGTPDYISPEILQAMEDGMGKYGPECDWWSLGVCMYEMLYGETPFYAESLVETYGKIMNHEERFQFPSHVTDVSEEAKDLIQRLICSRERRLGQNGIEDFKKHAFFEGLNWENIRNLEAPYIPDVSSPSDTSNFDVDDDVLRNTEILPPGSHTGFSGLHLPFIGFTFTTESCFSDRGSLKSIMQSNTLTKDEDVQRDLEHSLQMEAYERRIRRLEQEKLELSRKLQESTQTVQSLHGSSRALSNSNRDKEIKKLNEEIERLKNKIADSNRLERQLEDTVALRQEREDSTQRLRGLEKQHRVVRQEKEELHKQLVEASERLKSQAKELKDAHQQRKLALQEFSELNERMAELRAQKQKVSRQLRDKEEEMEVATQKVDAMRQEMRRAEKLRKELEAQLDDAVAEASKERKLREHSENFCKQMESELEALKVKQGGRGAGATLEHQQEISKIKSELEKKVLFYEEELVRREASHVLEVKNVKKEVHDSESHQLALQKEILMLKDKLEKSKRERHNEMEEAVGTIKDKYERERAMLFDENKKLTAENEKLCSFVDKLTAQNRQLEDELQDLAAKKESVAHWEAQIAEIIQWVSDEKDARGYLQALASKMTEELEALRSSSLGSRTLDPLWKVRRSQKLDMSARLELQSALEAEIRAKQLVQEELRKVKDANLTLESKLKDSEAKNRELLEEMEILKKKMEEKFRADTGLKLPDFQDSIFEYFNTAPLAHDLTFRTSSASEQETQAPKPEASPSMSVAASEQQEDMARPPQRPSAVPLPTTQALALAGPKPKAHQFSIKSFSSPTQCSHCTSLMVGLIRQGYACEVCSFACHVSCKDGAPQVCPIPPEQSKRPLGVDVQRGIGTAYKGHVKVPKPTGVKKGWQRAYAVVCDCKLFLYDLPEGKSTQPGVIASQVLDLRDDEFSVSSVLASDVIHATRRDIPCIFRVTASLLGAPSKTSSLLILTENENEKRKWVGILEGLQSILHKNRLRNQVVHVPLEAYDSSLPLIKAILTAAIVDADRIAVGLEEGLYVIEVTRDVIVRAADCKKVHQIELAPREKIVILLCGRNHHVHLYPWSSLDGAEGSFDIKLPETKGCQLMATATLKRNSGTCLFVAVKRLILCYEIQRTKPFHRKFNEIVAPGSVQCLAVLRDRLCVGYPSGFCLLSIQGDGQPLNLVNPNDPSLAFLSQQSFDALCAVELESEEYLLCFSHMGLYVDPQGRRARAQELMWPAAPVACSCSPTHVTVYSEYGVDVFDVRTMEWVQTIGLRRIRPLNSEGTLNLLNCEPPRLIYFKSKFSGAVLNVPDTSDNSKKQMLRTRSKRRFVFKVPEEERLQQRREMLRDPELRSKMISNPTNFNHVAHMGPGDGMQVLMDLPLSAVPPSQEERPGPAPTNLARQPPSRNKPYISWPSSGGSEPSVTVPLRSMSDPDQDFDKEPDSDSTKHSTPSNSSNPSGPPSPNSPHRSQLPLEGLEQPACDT
experimental.endpoint: residual activity (%)

• O=C1Nc2cc(Br)ccc2/C1=C1/Nc2ccccc2/C1=N\O = 97.5
• CC(C)(C)c1nc2c3ccc(F)cc3c3c(=O)[nH]ccc3c2[nH]1 = 96.8
• Oc1ccc(-c2nc(-c3ccc(F)cc3)c(-c3ccncc3)[nH]2)cc1 = 103
• Nc1n[nH]c2nnc(-c3c(-c4ccccc4)nn4ccccc34)cc12 = 93.4
• Cc1ccc(NC(=O)c2ccc(CN3CCN(C)CC3)cc2)cc1Nc1nc(-c2cccnc2)cs1 = 98.1

---

Items are presented alongside their recorded residual activity.
target: PKN2 (human) (UniProt Q16513); test: radiometric filter-binding kinase assay, Kinase HotSpot; conditions: compound 0.5 µM; ATP 10 µM
Sequence (Q16513 whole entry, looked up): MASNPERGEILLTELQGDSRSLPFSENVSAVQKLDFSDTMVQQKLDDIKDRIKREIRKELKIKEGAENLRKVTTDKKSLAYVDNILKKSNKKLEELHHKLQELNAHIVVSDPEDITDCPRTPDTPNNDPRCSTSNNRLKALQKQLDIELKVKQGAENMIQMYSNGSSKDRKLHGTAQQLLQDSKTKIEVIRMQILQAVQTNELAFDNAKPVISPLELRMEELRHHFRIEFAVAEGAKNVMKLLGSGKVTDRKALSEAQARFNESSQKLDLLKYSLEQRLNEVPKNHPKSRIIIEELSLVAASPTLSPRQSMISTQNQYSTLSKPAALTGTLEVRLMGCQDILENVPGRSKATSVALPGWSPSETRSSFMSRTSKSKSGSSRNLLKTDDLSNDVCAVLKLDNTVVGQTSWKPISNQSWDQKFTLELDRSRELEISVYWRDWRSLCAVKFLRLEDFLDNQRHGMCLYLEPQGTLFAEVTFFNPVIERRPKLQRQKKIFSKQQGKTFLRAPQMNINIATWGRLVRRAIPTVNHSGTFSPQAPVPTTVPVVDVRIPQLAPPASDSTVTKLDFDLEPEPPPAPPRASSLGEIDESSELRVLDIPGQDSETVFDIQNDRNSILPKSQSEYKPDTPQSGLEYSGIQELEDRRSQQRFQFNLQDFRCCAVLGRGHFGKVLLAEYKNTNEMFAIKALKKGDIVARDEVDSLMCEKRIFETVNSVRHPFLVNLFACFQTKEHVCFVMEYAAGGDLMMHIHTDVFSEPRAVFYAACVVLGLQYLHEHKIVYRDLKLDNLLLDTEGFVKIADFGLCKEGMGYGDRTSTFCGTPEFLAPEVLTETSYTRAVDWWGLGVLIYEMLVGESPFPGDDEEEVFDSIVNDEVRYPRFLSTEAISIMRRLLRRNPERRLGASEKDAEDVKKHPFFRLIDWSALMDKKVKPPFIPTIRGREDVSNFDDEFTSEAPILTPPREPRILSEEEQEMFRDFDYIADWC
experimental.endpoint: residual activity (%)

- O=C1Nc2cc(Br)ccc2/C1=C1/Nc2ccccc2/C1=N\O: 85.6
- Nc1n[nH]c2nnc(-c3c(-c4ccccc4)nn4ccccc34)cc12: 98.9
- CSc1nc(-c2ccc(F)cc2)c(-c2ccnc(NC(C)c3ccccc3)c2)[nH]1 (stereo not drawn): 76.1
- COc1cc2ncnc(Nc3ccc(F)c(Cl)c3)c2cc1OCCCN1CCOCC1: 93.1
- COc1ccc(-c2cnc3c(-c4ccsc4)cnn3c2)cc1: 107
- Clc1ccc(Nc2nnc(Cc3ccncc3)c3ccccc23)cc1: 99.9
- COc1cc2nccc(Oc3ccc(NC(=S)NC(=O)c4ccccc4C)cc3)c2cc1OC: 109
- Oc1ccc(-c2nc(-c3ccc(F)cc3)c(-c3ccncc3)[nH]2)cc1: 101
- O=c1cc(N2CCNCC2)oc2c(-c3ccccc3)cccc12: 99.5
- CCN1/C(=C/C(C)=O)Sc2ccc(OC)cc21: 99.7
- O=C1Cc2c([nH]c3ccc([N+](=O)[O-])cc23)-c2ccccc2N1: 74.5
- Cc1cc2ncc(-c3ccccc3)nc2cc1C: 104
- CC(C)n1cnc2c(Nc3cccc(Cl)c3)nc(NCCO)nc21: 90.8
- O=C(Nc1ccc(Cl)cc1)c1ccccc1NCc1ccncc1: 93.2
- CC(C)(C)c1nc2c3ccc(F)cc3c3c(=O)[nH]ccc3c2[nH]1: 67.1
- O=c1cc(-c2cccc3c2Sc2ccccc2S3)oc(N2CCOCC2)c1: 72.9
- Cc1ccc(NC(=O)c2ccc(CN3CCN(C)CC3)cc2)cc1Nc1nc(-c2cccnc2)cs1: 108
- Nc1nc(Nc2ccc(S(N)(=O)=O)cc2)nn1C(=O)c1c(F)cccc1F: 85.6
- O=C1Nc2ccccc2/C1=C\c1c(Cl)[nH]c2ccccc12: 96.3
- O=C(NC(NC(=S)Nc1ccc(F)c([N+](=O)[O-])c1)C(Cl)(Cl)Cl)C(c1ccccc1)c1ccccc1 (stereo not drawn): 88.1
- Nc1nc(Nc2ccc(S(N)(=O)=O)cc2)nn1C(=S)Nc1c(F)cccc1F: 19.1
- NC(=O)c1ccc(N(C(N)=O)c2c(F)cccc2F)nc1-c1ccc(F)cc1F: 99.7
- CCCNC(=O)Nc1ccc(Oc2ncnc3cc(OC)c(OC)cc23)cc1Cl: 99.2

---

biological target: CDK2 CCNA2 (human) (UniProt P24941+P20248); experiment: radiometric filter-binding kinase assay, Kinase HotSpot; settings: compound 0.5 µM; ATP 10 µM
Sequence (P20248 whole entry, looked up, other chains not shown): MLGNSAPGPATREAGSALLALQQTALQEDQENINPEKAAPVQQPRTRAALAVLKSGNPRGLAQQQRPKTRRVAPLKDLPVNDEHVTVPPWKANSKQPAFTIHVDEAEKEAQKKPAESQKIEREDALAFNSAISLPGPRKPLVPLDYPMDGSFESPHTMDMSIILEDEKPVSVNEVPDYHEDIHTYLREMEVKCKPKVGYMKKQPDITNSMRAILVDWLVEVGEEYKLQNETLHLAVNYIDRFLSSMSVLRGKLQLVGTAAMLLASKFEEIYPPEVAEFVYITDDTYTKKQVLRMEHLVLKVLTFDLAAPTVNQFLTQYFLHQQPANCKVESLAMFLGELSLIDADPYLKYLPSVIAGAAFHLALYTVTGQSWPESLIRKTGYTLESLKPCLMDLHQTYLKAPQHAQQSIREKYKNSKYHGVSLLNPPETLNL
Rule: true for residual activity not less than 90%, false for anything less.

• O=C1Cc2c([nH]c3ccc([N+](=O)[O-])cc23)-c2ccccc2N1 = false
• O=c1cc(N2CCNCC2)oc2c(-c3ccccc3)cccc12 = true
• CS(=O)c1ccc(-c2nc(-c3ccc(F)cc3)c(-c3ccncc3)[nH]2)cc1 (centres undefined) = true
• Oc1ccc(-c2nc(-c3ccc(F)cc3)c(-c3ccncc3)[nH]2)cc1 = true
• Nc1nc(Nc2ccc(S(N)(=O)=O)cc2)nn1C(=O)c1c(F)cccc1F = false

---

biological target: CLK4 (human) (UniProt Q9HAZ1); test: radiometric filter-binding kinase assay, Kinase HotSpot; settings: compound 0.5 µM; ATP 10 µM
Sequence (Q9HAZ1 whole entry, looked up): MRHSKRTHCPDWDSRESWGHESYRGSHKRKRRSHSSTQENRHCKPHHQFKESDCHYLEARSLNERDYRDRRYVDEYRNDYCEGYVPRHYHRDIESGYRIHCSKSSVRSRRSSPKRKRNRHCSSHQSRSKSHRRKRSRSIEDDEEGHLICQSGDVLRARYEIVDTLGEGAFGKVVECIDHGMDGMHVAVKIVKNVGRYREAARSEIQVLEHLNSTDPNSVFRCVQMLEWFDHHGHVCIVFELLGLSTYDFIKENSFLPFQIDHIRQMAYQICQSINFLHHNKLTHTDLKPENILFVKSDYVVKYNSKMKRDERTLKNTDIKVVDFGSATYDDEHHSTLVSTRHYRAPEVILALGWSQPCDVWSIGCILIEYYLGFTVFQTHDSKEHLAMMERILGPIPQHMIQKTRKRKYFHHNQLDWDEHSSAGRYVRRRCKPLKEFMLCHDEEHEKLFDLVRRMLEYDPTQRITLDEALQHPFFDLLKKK
Items are presented alongside their recorded residual activity.
experimental.endpoint: residual activity (%)

* Cc1ccc(NC(=O)c2ccc(CN3CCN(C)CC3)cc2)cc1Nc1nc(-c2cccnc2)cs1 | 93.3
* Nc1nc(Nc2ccc(S(N)(=O)=O)cc2)nn1C(=O)c1c(F)cccc1F | 41.6
* O=C1Nc2ccccc2/C1=C\c1c(Cl)[nH]c2ccccc12 | 105
* COc1cc2ncnc(Nc3ccc(F)c(Cl)c3)c2cc1OCCCN1CCOCC1 | 107

---

target: EPHB3 (human); test: radiometric filter-binding kinase assay, Kinase HotSpot; conditions: compound 0.5 µM; ATP 10 µM
Items are presented alongside their recorded residual activity.
experimental.endpoint: residual activity (%)

* CSc1nc(-c2ccc(F)cc2)c(-c2ccnc(NC(C)c3ccccc3)c2)[nH]1 (stereo unspecified) | 94
* Nc1n[nH]c2nnc(-c3c(-c4ccccc4)nn4ccccc34)cc12 | 96.8
* O=C1Nc2ccccc2/C1=C\c1c(Cl)[nH]c2ccccc12 | 91.3
* Cc1cc2ncc(-c3ccccc3)nc2cc1C | 98.4
* COc1cc2ncnc(Nc3ccc(F)c(Cl)c3)c2cc1OCCCN1CCOCC1 | 57.5
* CCN1/C(=C/C(C)=O)Sc2ccc(OC)cc21 | 90.3

---

target: PHKG1 (human) (UniProt Q16816); test: radiometric filter-binding kinase assay, Kinase HotSpot; settings: compound 0.5 µM; ATP 10 µM
Items are presented alongside their recorded residual activity.
experimental.endpoint: residual activity (%)

- CS(=O)c1ccc(-c2nc(-c3ccc(F)cc3)c(-c3ccncc3)[nH]2)cc1 (centres undefined): 94.1
- CSc1nc(-c2ccc(F)cc2)c(-c2ccnc(NC(C)c3ccccc3)c2)[nH]1 (centres undefined): 91.8
- COc1cc2ncnc(Nc3ccc(F)c(Cl)c3)c2cc1OCCCN1CCOCC1: 68.8
- O=C(Nc1ccc(Cl)cc1)c1ccccc1NCc1ccncc1: 94.2

---

Items are presented alongside their recorded residual activity.
biological target: CHEK2 (human) (UniProt O96017); assay: radiometric filter-binding kinase assay, Kinase HotSpot; conditions: compound 0.5 µM; ATP 10 µM
Sequence (O96017 whole entry, looked up): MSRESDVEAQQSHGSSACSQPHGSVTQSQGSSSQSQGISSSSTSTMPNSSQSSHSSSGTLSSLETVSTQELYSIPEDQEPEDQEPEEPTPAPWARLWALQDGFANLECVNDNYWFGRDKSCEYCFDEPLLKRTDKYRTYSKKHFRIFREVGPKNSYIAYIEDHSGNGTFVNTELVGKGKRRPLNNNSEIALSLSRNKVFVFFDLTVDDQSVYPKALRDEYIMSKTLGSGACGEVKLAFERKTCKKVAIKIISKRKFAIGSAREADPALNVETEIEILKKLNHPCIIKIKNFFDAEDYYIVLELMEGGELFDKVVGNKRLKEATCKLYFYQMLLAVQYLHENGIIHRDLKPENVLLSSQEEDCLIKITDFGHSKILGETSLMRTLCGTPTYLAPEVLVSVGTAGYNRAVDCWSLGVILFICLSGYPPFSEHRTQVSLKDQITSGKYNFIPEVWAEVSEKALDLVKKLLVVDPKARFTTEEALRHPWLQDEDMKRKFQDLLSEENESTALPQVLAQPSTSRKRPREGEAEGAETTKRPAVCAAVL
experimental.endpoint: residual activity

* C#Cc1cccc(Nc2ncnc3cc(OCCOC)c(OCCOC)cc23)c1 | 100%
* CS(=O)c1ccc(-c2nc(-c3ccc(F)cc3)c(-c3ccncc3)[nH]2)cc1 (centres undefined) | 99.6%
* Nc1n[nH]c2nnc(-c3c(-c4ccccc4)nn4ccccc34)cc12 | 97%
* Cc1cc2ncc(-c3ccccc3)nc2cc1C | 96.8%

---

Items are presented alongside their recorded residual activity.
target: EPHA2 (human); assay: radiometric filter-binding kinase assay, Kinase HotSpot; conditions: compound 0.5 µM; ATP 10 µM
experimental.endpoint: residual activity

• COc1ccc(-c2cnc3c(-c4ccsc4)cnn3c2)cc1 = 95.9%
• Nc1n[nH]c2nnc(-c3c(-c4ccccc4)nn4ccccc34)cc12 = 98.3%
• NC(=O)c1ccc(N(C(N)=O)c2c(F)cccc2F)nc1-c1ccc(F)cc1F = 89%
• O=C(NC(NC(=S)Nc1ccc(F)c([N+](=O)[O-])c1)C(Cl)(Cl)Cl)C(c1ccccc1)c1ccccc1 (stereo not given) = 103%
• O=c1cc(N2CCNCC2)oc2c(-c3ccccc3)cccc12 = 108%
• O=C1Nc2cc(Br)ccc2/C1=C1/Nc2ccccc2/C1=N\O = 70.9%
• Cc1cc2ncc(-c3ccccc3)nc2cc1C = 103%
• O=C1Nc2ccccc2/C1=C\c1c(Cl)[nH]c2ccccc12 = 97.3%
• CC(C)n1cnc2c(Nc3cccc(Cl)c3)nc(NCCO)nc21 = 93.3%
• COc1cc2nccc(Oc3ccc(NC(=S)NC(=O)c4ccccc4C)cc3)c2cc1OC = 86.9%
• C#Cc1cccc(Nc2ncnc3cc(OCCOC)c(OCCOC)cc23)c1 = 91.3%
• Oc1ccc(-c2nc(-c3ccc(F)cc3)c(-c3ccncc3)[nH]2)cc1 = 91.3%
• Nc1nc(Nc2ccc(S(N)(=O)=O)cc2)nn1C(=O)c1c(F)cccc1F = 80.9%
• Nc1nc(Nc2ccc(S(N)(=O)=O)cc2)nn1C(=S)Nc1c(F)cccc1F = 29.9%
• COc1cc2ncnc(Nc3ccc(F)c(Cl)c3)c2cc1OCCCN1CCOCC1 = 85.7%
• Clc1ccc(Nc2nnc(Cc3ccncc3)c3ccccc23)cc1 = 92.5%
• CSc1nc(-c2ccc(F)cc2)c(-c2ccnc(NC(C)c3ccccc3)c2)[nH]1 (stereo not given) = 98.8%
• Cc1ccc(NC(=O)c2ccc(CN3CCN(C)CC3)cc2)cc1Nc1nc(-c2cccnc2)cs1 = 91.2%
• CCCNC(=O)Nc1ccc(Oc2ncnc3cc(OC)c(OC)cc23)cc1Cl = 104%
• O=C1Cc2c([nH]c3ccc([N+](=O)[O-])cc23)-c2ccccc2N1 = 92.7%

---

target: CDK3 CCNE1 (human) (UniProt Q00526+P24864); assay: radiometric filter-binding kinase assay, Kinase HotSpot; settings: compound 0.5 µM; ATP 10 µM
Sequence (P24864 whole entry, looked up): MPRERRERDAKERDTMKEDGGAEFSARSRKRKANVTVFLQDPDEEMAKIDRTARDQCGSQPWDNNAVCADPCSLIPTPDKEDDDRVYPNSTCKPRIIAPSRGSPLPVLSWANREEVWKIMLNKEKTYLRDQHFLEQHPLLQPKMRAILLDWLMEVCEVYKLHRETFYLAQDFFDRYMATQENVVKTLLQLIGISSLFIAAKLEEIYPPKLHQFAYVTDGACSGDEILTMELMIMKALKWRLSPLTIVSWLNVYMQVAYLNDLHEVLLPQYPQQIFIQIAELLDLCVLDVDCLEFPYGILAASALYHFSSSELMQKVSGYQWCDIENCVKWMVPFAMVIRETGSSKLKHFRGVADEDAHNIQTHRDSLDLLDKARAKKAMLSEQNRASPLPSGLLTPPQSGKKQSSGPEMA
Sequence (Q00526 whole entry, looked up): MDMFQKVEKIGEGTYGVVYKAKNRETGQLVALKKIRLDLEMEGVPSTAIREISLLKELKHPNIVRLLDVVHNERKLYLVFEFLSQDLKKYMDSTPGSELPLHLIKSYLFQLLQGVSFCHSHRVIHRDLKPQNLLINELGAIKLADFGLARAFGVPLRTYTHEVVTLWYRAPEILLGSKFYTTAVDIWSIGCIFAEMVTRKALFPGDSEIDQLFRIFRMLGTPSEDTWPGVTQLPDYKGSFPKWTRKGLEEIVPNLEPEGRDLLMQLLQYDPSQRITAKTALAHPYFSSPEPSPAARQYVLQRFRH
Rule: fulfilled for residual activity not less than 90%, not fulfilled for anything less.

• CSc1nc(-c2ccc(F)cc2)c(-c2ccnc(NC(C)c3ccccc3)c2)[nH]1 (centres undefined) = not fulfilled
• O=C1Nc2ccccc2/C1=C\c1c(Cl)[nH]c2ccccc12 = fulfilled
• O=C(NC(NC(=S)Nc1ccc(F)c([N+](=O)[O-])c1)C(Cl)(Cl)Cl)C(c1ccccc1)c1ccccc1 (centres undefined) = fulfilled
• Nc1nc(Nc2ccc(S(N)(=O)=O)cc2)nn1C(=O)c1c(F)cccc1F = not fulfilled
• Nc1nc(Nc2ccc(S(N)(=O)=O)cc2)nn1C(=S)Nc1c(F)cccc1F = not fulfilled
• O=C1Nc2cc(Br)ccc2/C1=C1/Nc2ccccc2/C1=N\O = not fulfilled
• CC(C)[C@H](CO)Nc1nc(Nc2cccc(Cl)c2)c2ncn(C(C)C)c2n1 = not fulfilled
• Oc1ccc(-c2nc(-c3ccc(F)cc3)c(-c3ccncc3)[nH]2)cc1 = fulfilled
• COc1ccc(-c2cnc3c(-c4ccsc4)cnn3c2)cc1 = not fulfilled
• Clc1ccc(Nc2nnc(Cc3ccncc3)c3ccccc23)cc1 = fulfilled
• C#Cc1cccc(Nc2ncnc3cc(OCCOC)c(OCCOC)cc23)c1 = fulfilled
• Nc1n[nH]c2nnc(-c3c(-c4ccccc4)nn4ccccc34)cc12 = fulfilled
• CC(C)n1cnc2c(Nc3cccc(Cl)c3)nc(NCCO)nc21 = not fulfilled
• O=c1cc(-c2cccc3c2Sc2ccccc2S3)oc(N2CCOCC2)c1 = fulfilled
• COc1cc2nccc(Oc3ccc(NC(=S)NC(=O)c4ccccc4C)cc3)c2cc1OC = not fulfilled
• CCOc1nc(NC(=O)Cc2cc(OC)ccc2OC)cc(N)c1C#N = fulfilled
• NC(=O)c1ccc(N(C(N)=O)c2c(F)cccc2F)nc1-c1ccc(F)cc1F = fulfilled
• COc1cc2ncnc(Nc3ccc(F)c(Cl)c3)c2cc1OCCCN1CCOCC1 = fulfilled
• CS(=O)c1ccc(-c2nc(-c3ccc(F)cc3)c(-c3ccncc3)[nH]2)cc1 (centres undefined) = fulfilled
• CCCNC(=O)Nc1ccc(Oc2ncnc3cc(OC)c(OC)cc23)cc1Cl = fulfilled
• O=C1Cc2c([nH]c3ccc([N+](=O)[O-])cc23)-c2ccccc2N1 = not fulfilled
• Cc1cc(Nc2cc(N3CCN(C)CC3)nc(Sc3ccc(NC(=O)C4CC4)cc3)n2)[nH]n1 = fulfilled
• Cc1cc2ncc(-c3ccccc3)nc2cc1C = fulfilled
• NC(=O)c1ccc(-c2nc(-c3ccccn3)c(-c3ccc4c(c3)OCCO4)[nH]2)cc1 = fulfilled
• O=c1cc(N2CCNCC2)oc2c(-c3ccccc3)cccc12 = fulfilled
